These measurements were taken from patent US20240392013A1.

binders and their reported IC50, HEK-BlueIL33 NFκB Reporter Assay
Target: T1, IL1RAP on HEK-Blue IL1β / HEK-Blue IL33 reporter cells (UniProt Q9NPH3 21-570, limits assumed)
T1 sequence (looked up): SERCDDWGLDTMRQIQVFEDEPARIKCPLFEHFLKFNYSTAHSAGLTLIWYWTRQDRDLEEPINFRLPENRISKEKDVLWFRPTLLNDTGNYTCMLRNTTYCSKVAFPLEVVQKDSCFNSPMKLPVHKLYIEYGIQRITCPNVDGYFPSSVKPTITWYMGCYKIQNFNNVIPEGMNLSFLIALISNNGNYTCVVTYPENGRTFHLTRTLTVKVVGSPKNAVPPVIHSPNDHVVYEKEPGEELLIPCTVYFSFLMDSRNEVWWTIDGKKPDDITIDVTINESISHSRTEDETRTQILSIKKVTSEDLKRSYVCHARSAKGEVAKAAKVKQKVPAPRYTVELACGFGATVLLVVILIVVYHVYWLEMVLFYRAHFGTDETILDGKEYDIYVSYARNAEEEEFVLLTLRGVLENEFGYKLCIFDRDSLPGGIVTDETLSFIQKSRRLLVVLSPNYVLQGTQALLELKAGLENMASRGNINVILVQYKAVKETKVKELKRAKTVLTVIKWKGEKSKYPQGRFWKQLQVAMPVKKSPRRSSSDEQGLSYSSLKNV
Experiment: cell-based or functional assay

Sample answers from the record:
{"BINDER": "STLX2007 (antibody, V domains shown, Purified from hybridoma of immunized Alivamab mice; intact IgG; captured on anti-mouse IgG Fc sensors in Octet; kappa light chain; also called 74804_07K10A) VH: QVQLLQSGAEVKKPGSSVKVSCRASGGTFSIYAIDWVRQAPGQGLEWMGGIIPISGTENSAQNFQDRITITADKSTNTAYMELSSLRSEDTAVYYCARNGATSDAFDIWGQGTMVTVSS VL: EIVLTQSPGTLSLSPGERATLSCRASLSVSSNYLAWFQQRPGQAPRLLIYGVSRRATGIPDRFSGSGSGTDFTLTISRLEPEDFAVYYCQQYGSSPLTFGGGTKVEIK", "IC50, HEK-BlueIL33 NFκB Reporter Assay": "6.62e-09 M (implied; unit not printed)"}
{"BINDER": "STLX2018 (antibody, V domains shown, Purified from hybridoma of immunized Alivamab mice; intact IgG; captured on anti-mouse IgG Fc sensors in Octet; kappa light chain; also called 74804_18L05A) VH: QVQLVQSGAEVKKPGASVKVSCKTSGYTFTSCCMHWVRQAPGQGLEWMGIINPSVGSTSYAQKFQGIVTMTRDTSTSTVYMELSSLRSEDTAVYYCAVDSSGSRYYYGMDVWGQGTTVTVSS VL: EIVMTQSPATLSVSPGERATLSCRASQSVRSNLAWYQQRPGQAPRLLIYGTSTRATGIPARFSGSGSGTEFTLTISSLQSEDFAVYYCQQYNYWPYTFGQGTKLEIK", "IC50, HEK-BlueIL33 NFκB Reporter Assay": "4.81e-09 M (implied; unit not printed)"}
{"BINDER": "STLX2027 (antibody, V domains shown, Purified from hybridoma of immunized Alivamab mice; intact IgG; captured on anti-mouse IgG Fc sensors in Octet; lambda light chain; also called 74804_27I24A) VH: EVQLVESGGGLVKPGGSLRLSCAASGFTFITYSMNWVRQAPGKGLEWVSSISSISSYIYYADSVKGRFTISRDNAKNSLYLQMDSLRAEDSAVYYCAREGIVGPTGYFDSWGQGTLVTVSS VL: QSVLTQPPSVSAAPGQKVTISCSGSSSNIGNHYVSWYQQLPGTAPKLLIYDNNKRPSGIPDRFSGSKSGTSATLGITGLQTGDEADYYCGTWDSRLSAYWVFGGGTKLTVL", "IC50, HEK-BlueIL33 NFκB Reporter Assay": "8.31e-09 M (implied; unit not printed)"}
{"BINDER": "STLX2043 (antibody, V domains shown, Purified from hybridoma of immunized Alivamab mice; intact IgG; captured on anti-mouse IgG Fc sensors in Octet; kappa light chain; also called 74804_43F04A) VH: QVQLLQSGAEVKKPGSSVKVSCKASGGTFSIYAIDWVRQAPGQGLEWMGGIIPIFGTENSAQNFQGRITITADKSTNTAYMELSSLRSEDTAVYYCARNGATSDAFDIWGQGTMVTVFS VL: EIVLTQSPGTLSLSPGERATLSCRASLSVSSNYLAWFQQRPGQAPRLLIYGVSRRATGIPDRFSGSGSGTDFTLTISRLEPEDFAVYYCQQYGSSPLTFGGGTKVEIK", "IC50, HEK-BlueIL33 NFκB Reporter Assay": "9.62e-09 M (implied; unit not printed)"}

Would you kindly look at the next entry?
Please report the recorded IC50, HEK-BlueIL33 NFκB Reporter Assay for STLX2045 (antibody, V domains shown, Purified from hybridoma of immunized Alivamab mice; intact IgG; captured on anti-mouse IgG Fc sensors in Octet; kappa light chain; also called 74804_45C18A) VH: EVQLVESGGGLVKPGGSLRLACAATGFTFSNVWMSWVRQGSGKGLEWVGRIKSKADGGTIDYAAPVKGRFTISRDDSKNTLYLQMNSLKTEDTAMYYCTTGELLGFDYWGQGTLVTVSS VL: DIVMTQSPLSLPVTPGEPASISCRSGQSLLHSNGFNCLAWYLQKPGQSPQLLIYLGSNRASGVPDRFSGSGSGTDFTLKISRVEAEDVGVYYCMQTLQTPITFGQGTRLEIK .
1.37e-09 M (implied; unit not printed)
